# PROCEDURE_SUMMARY: Substrate specificity of WNanoKAZ mutants, crude enzyme solution (Example 11)
# Assay type: biochemical
# EXPERIMENTAL_PARAMETERS: Int.
EXPERIMENTAL_READOUT: Relative luminescence activity, h-CTZ, Int.
Answers are plain numbers.

{"columns": ["MOLECULE", "REPORTED_VALUE"],
 "data": [
  ["WNanoKAZ: chimeric protein: positions 1-82 of native KAZ and 83-169 of nanoKAZ; SEQ ID NO: 6; I90V, P115E, Q124K, Y138I, N166R (protein, chimeric protein: positions 1-82 of native KAZ and 83-169 of nanoKAZ; I90V, P115E, Q124K, Y138I, N166R) FTLADFVGDWQQTAGYNQDQVLEQGGLSSLFQALGVSVTPIQKVVLSGENGLKADIHVIIPYEGLSGFQMGLIEMIFKVVYPVDDHHFKVILHYGTLVIDGVTPNMIDYFGRPYEGIAVFDGKKITVTGTLWNGNKIIDERLINPDGSLLFRVTINGVTGWRLCERILA", 33]
]}

Give one value of Relative luminescence activity, h-CTZ, Int. per listed molecule.
1. WNanoKAZ-R166N: single amino acid-substituted WNanoKAZ mutant R166N; SEQ ID NO: 16 (protein) FTLADFVGDWQQTAGYNQDQVLEQGGLSSLFQALGVSVTPIQKVVLSGENGLKADIHVIIPYEGLSGFQMGLIEMIFKVVYPVDDHHFKVILHYGTLVIDGVTPNMIDYFGRPYEGIAVFDGKKITVTGTLWNGNKIIDERLINPDGSLLFRVTINGVTGWRLCENILA
2. WNanoKAZ-E115P: WNanoKAZ with substitution of proline for glutamic acid at position 115; SEQ ID NO: 10 (protein) FTLADFVGDWQQTAGYNQDQVLEQGGLSSLFQALGVSVTPIQKVVLSGENGLKADIHVIIPYEGLSGFQMGLIEMIFKVVYPVDDHHFKVILHYGTLVIDGVTPNMIDYFGRPYPGIAVFDGKKITVTGTLWNGNKIIDERLINPDGSLLFRVTINGVTGWRLCERILA
3. KAZ: 19 kDa protein of native Oplophorus luciferase having luminescence activity; SEQ ID NO: 2 (protein, listed as Oplophorus gracilirostris) FTLADFVGDWQQTAGYNQDQVLEQGGLSSLFQALGVSVTPIQKVVLSGENGLKADIHVIIPYEGLSGFQMGLIEMIFKVVYPVDDHHFKIILHYGTLVIDGVTPNMIDYFGRPYPGIAVFDGKQITVTGTLWNGNKIYDERLINPDGSLLFRVTINGVTGWRLCENILA

Result:
1. 28
2. 17
3. 0.9

Data origin: patent US10184116B2
